# System: M. luteus ATCC 4698
# test.description: MIC, broth dilution
# Format: cell-based, Micrococcus luteus
# assay.setup: Table 4; liquid broth
Ends that are not written are not given here.
Mark Y only for MIC (μg/mL) M. luteus values smaller than 50 µg/mL; exact matches and larger values are N.

Example cases with answers are listed next.
TVGGLVKWILDTVKKFA [STIP3-1, TVGGLVKWILDTVKKFA]	Y
TVGALVKWILDTVKKFA [G4A, TVGALVKWILDTVKKFA]	Y
TVGGLVKWILDTVAKFA [K14A, TVGGLVKWILDTVAKFA]	Y

Task: # strict comparison: is reported MIC (μg/mL) M. luteus < 50 µg/mL? input = AVGGLVKWILDTVKKFA [T1A, AVGGLVKWILDTVKKFA]
Output: Y

Task: # strict comparison: is reported MIC (μg/mL) M. luteus < 50 µg/mL? input = TVGGLVKWILDTVKAFA [K15A, TVGGLVKWILDTVKAFA]
Output: Y
